molecular target: Human CAPN5-PC (Homo sapiens, UniProt O15484); assay: Human CAPN5-PC | Ki (µM)
No end group written: not given here.
Observation Type: pKi
Numbers only, as −log10 of the molar value.

State the recorded pKi for this entry: RQNRGGGCINH (not fully specified (N-terminus)) [PR1476] 4.37

###

Target: CAPN5-PC p.G267S (Homo sapiens, UniProt O15484, G267S)
Construct: active recombinant CAPN5 protease core (CAPN5-PC)
Sequence (O15484 26-343 G267S limits assumed): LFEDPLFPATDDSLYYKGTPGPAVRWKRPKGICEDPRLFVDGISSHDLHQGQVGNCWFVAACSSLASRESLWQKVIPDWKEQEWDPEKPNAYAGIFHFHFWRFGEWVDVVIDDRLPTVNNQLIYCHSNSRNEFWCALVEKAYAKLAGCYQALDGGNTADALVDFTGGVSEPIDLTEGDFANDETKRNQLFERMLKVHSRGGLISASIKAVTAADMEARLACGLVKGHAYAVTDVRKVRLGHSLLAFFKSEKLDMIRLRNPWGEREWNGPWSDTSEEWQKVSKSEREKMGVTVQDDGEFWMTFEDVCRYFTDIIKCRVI
Test: In vitro CAPN5 activity assay with consensus FRET peptides
Assay type: biochemical
Conditions: 1.6 μM CAPN5-PC p.G267S, 10 mM Ca^2+
Description: Consensus FRET peptides were synthesized based on the highest scoring amino acids at each position of the PSSM (Peptides P4′A, P4′P, P2R, and P3GP1′ V) and were tested in our in vitro CAPN5 activity assay (FIG. 9B). These substrates were hydrolyzed by 1.6 μM CAPN5-PC p.G267S in the presence of 10 mM Ca^2+. […] The catalytic efficiency (kcat/Km) of this peptide was higher than the observed kcat/Km for our previously determined PR1476 peptide (11 vs. 7 M^−1s^−1; FIG. 9D).
No end group written: not given here.
Observation Type: hydrolysis by CAPN5-PC p.G267S

EVRALEEA (also: FRET labels, places not given here) [P2R, consensus FRET peptide substrate of calpain-5]; hydrolyzed
EGKAVLEA (also: FRET labels, places not given here) [P3GP1′V, consensus FRET peptide substrate of calpain-5]; hydrolyzed
EVKALEEP (also: FRET labels, places not given here) [P4′P, consensus FRET peptide substrate of calpain-5]; hydrolyzed
EVKALEEA (also: FRET labels, places not given here) [P4′A, consensus FRET peptide substrate of calpain-5]; hydrolyzed

All figures here come from patent US12486528B2.
